Form: system (human JAK3 (aa 795-1124) (Homo sapiens)), quantity (IC50), values below.

Recorded results for 5 compounds are shown here.
                    structure_smiles_string       result
0  O=c1[nH]c2c(N3CCNCC3)nc(-c3cnc4ccc(F)cn34)nc2n1C1CCOCC1     < 0.1 µM
1  O=c1[nH]c2cnc(-c3cnn4ccncc34)nc2n1C1CCC(F)(F)CC1     < 0.1 µM
2  N#CC1(n2c(=O)[nH]c3cnc(-c4cnc5ccc(F)cn45)nc32)CCCCC1  0.1 to 1 µM
3  O=c1[nH]c2cc(F)c(-c3cnc4ccc(F)cn34)nc2n1C1CCOCC1     < 0.1 µM
4  CS(=O)(=O)N1CCC(n2c(=O)[nH]c3ccc(-c4cnc5ccc(F)cn45)nc32)CC1     < 0.1 µM

Q: Using human JAK3 (aa 795-1124) (Homo sapiens) as the test system, report measured IC50 of `C[C@H](CC(N)=O)n1c(=O)[nH]c2cnc(-c3cnc4ccc(F)cn34)nc21` .
A: 0.1 to 1 µM

Q: Using human JAK3 (aa 795-1124) (Homo sapiens) as the test system, report measured IC50 of `O=c1[nH]c2cnc(-c3cnc4ccc(F)cn34)nc2n1[C@H](CO)c1ccc(F)cn1` .
A: 0.1 to 1 µM

The values you see were collected from patent US20130089512A1.
